targetOrSystem: Adenosine receptor A2b (Homo sapiens)
experimentDescription: Displacement of [3H]DPCPX from recombinant human adenosine A2B receptor expressed in HEK293 cells at 0.1 uM
Format: cell-based
valueType: inhibition (%)
Numbers only, in %.

For orientation, consider the following solved cases.
[
  {
    "compound": "CCCn1c(=O)c2[nH]c(-c3ccc(OCC(=O)Nc4ccc(S(=O)(=O)c5ccccc5)cc4)cc3)cc2n(CCC)c1=O",
    "unit": "%",
    "inhibition": 85
  },
  {
    "compound": "COc1cc(-c2cc3c([nH]2)c(=O)n(C)c(=O)n3C)ccc1OCC(=O)O",
    "unit": "%",
    "inhibition": 15
  },
  {
    "compound": "COc1cc(OCC(=O)O)ccc1-c1cc2c([nH]1)c(=O)n(C)c(=O)n2C",
    "unit": "%",
    "inhibition": 3
  },
  {
    "compound": "CCCn1c(=O)c2[nH]c(-c3ccc(OCC(=O)Nc4ccc(CC(=O)O)cc4)cc3)cc2n(CCC)c1=O",
    "unit": "%",
    "inhibition": 87
  },
  {
    "compound": "CCCn1c(=O)c2[nH]c(-c3ccc(OCC(=O)Nc4ccc(C=O)cc4)cc3)cc2n(CCC)c1=O",
    "unit": "%",
    "inhibition": 67
  }
]

List reported inhibition for each of these compounds:
1. CCCn1c(=O)c2[nH]c(-c3ccc(OCC(=O)NC(C(=O)O)c4ccccc4)cc3)cc2n(CCC)c1=O (stereo not drawn)
2. CCCn1c(=O)c2[nH]c(-c3ccc(OCC(=O)Nc4ccc(Br)cc4)cc3OC)cc2n(CCC)c1=O

Output line:
1: 45; 2: 64

List reported inhibition for each of these compounds:
1. Cn1c(=O)c2[nH]c(-c3ccc(OCC(=O)O)cc3)c(Br)c2n(C)c1=O
2. Cn1c(=O)c2[nH]c(-c3ccc(OCC(=O)Nc4cnccn4)cc3)cc2n(C)c1=O
3. CCCn1c(=O)c2[nH]c(-c3ccc(OC(C)(C)C(=O)O)cc3)cc2n(C)c1=O
4. CCCn1c(=O)c2[nH]c(-c3ccc(OCC(=O)NCc4ccncc4)cc3)cc2n(C)c1=O
5. COc1cc(-c2cc3c([nH]2)c(=O)n(C)c(=O)n3C)ccc1OCC(=O)Nc1ccccc1

Output line:
[24, 44, 50, 49, 27]

List reported inhibition for each of these compounds:
1. CCCn1c(=O)n(C)c(=O)c2[nH]c(-c3ccc(OCC(=O)Nc4ccc(Br)cc4)cc3)cc21
2. CCCn1c(=O)c2[nH]c(-c3ccc(OC(C)C(=O)Nc4ccccc4)cc3)cc2n(CCC)c1=O (stereo not drawn)
3. CCCn1c(=O)c2[nH]c(-c3ccc(OCC(=O)Nc4ccc(F)cc4)cc3)cc2n(CCC)c1=O
4. CCCn1c(=O)c2[nH]c(-c3ccc(OCC(=O)Nc4ccc(F)cc4)cc3)c(Br)c2n(CCC)c1=O
5. CCCn1c(=O)c2[nH]c(-c3ccc(OCC(=O)Nc4ccc(S(N)(=O)=O)cc4)cc3)cc2n(CCC)c1=O
6. Cn1c(=O)c2[nH]c(-c3ccc(OCC(=O)Nc4ccc([N+](=O)[O-])cc4)cc3)cc2n(C)c1=O

Output line:
84
92
96
72
53
82

* * *

targetOrSystem: Adenosine receptor A2a (Rattus norvegicus, UniProt P30543)
Sequence (P30543 whole entry): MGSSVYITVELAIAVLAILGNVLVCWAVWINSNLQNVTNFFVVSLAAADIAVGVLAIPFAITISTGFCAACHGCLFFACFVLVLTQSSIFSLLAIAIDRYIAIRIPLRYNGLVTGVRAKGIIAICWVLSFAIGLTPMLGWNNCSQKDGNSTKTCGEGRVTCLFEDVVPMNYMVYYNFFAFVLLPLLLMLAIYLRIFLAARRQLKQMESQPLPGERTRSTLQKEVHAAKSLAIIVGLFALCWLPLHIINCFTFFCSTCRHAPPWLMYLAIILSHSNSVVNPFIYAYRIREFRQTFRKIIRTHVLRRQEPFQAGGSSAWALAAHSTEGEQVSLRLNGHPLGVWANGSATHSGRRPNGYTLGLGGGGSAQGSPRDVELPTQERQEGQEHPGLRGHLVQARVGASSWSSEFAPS
experimentDescription: Antagonist potency against adenosine A2A receptor of Sprague-Dawley rat aortic smooth muscle
Type: functional
cond: read-out: pA2 (converted)
Please respond with reported Kb for every item in the list.

[
  {
    "structure": "Cn1c(=O)c2[nH]c(-c3ccc(OCC(=O)Nc4ccc(Br)cc4)cc3)cc2n(C)c1=O",
    "targetOrSystem": "Adenosine receptor A2a (Rattus norvegicus, UniProt P30543)",
    "Kb": "126 nM"
  },
  {
    "structure": "Cn1c(=O)c2[nH]c(-c3ccc(OCC(=O)Nc4ccc(C#N)cc4)cc3)cc2n(C)c1=O",
    "targetOrSystem": "Adenosine receptor A2a (Rattus norvegicus, UniProt P30543)",
    "Kb": "43.7 nM"
  },
  {
    "structure": "COc1cc(OCC(=O)Nc2ccc(Br)cc2)ccc1-c1cc2c([nH]1)c(=O)n(C)c(=O)n2C",
    "targetOrSystem": "Adenosine receptor A2a (Rattus norvegicus, UniProt P30543)",
    "Kb": "933 nM"
  }
]

List reported Kb for each of these compounds:
1. Cn1c(=O)c2[nH]c(-c3ccc(OCC(=O)Nc4ccc(F)cc4)cc3)cc2n(C)c1=O
2. CCCn1c(=O)c2[nH]c(-c3ccc(OCC(=O)Nc4ccc(-c5ccccc5)cc4)cc3)cc2n(C)c1=O

Output line:
["51.3 nM", "468 nM"]

* * *

targetOrSystem: UniProt P29275
experimentDescription: Displacement of [3H]DPCPX from recombinant human adenosine A2B receptor expressed in HEK293 cells at 0.01 uM
valueType: inhibition (%)
Answers are plain numbers, in %.

For orientation, consider the following solved cases.
[
  {
    "structure": "CCCn1c(=O)c2[nH]c(-c3ccc(OCC(=O)c4c(NC(=O)O)[nH]c(=O)n(C)c4=O)cc3)cc2n(CCC)c1=O",
    "measuredNumber": 21
  },
  {
    "structure": "CCCn1c(=O)c2[nH]c(-c3ccc(OCC(=O)Nc4ccc(C(F)(F)F)cc4)cc3)cc2n(CCC)c1=O",
    "measuredNumber": 14
  },
  {
    "structure": "CN(C(=O)COc1ccc(-c2cc3c([nH]2)c(=O)n(C)c(=O)n3C)cc1)c1ccccc1",
    "measuredNumber": 15
  }
]

List reported inhibition for each of these compounds:
1. Cn1c(=O)c2[nH]c(-c3cccc(OCC(=O)Nc4ccccc4)c3)cc2n(C)c1=O
2. CCCn1c(=O)c2[nH]c(-c3ccc(OCC(=O)Nc4ccc(C(N)=O)cc4)cc3)cc2n(CCC)c1=O
3. CCCn1c(=O)c2[nH]c(-c3ccc(OCC(=O)Nc4ccc(CC#N)cc4)cc3)cc2n(CCC)c1=O
4. Cn1c(=O)c2[nH]c(-c3ccc(OCC(=O)Nc4ccc(CCN)cc4)cc3)cc2n(C)c1=O
5. CCCn1c(=O)c2nc(-c3ccc(OCC(N)=O)cc3)[nH]c2n(CCC)c1=O

Output line:
1. 10
2. 16
3. 34
4. 7
5. 11

* * *

targetOrSystem: UniProt:P29275
Sequence (whole entry): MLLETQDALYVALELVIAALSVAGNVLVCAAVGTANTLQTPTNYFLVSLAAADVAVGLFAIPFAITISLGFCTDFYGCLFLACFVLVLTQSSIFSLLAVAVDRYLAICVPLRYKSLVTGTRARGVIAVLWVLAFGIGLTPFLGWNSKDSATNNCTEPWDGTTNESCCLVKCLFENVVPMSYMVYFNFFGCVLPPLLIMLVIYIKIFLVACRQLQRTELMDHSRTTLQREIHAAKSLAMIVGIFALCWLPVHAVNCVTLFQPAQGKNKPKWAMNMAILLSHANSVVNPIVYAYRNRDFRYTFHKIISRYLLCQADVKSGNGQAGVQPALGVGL
experimentDescription: Displacement of [3H]DPCPX from recombinant human adenosine A2B receptor expressed in HEK293 cells at 0.1 uM
Format: cell-based
valueType: inhibition (%)
Give bare numbers, in %.

For orientation, consider the following solved cases.
[
  {
    "compound": "CCCn1c(=O)c2[nH]c(-c3ccc(OCC(=O)n4ccc(N)n4)cc3)cc2n(CCC)c1=O",
    "unit": "%",
    "inhibition": 83
  },
  {
    "compound": "CCCn1c(=O)c2[nH]c(-c3ccc(OCC(=O)OCC)cc3)cc2n(CCC)c1=O",
    "unit": "%",
    "inhibition": 55
  },
  {
    "compound": "CCCn1c(=O)c2[nH]c(-c3ccc(OCC(=O)O)cc3OC)cc2n(CCC)c1=O",
    "unit": "%",
    "inhibition": 8
  },
  {
    "compound": "CC(C)Cn1c(=O)c2[nH]c(-c3ccc(OCC(=O)Nc4ccccc4)cc3)cc2n(C)c1=O",
    "unit": "%",
    "inhibition": 57
  },
  {
    "compound": "CCCn1c(=O)c2[nH]c(-c3ccc(OC(C(=O)O)c4ccccc4)cc3)cc2n(CCC)c1=O (centres undefined)",
    "unit": "%",
    "inhibition": 47
  },
  {
    "compound": "CCCn1c(=O)c2[nH]c(-c3ccc(OCC(=O)Nc4ccc(OC)nc4)cc3)cc2n(C)c1=O",
    "unit": "%",
    "inhibition": 99
  },
  {
    "compound": "CCCn1c(=O)c2[nH]c(-c3ccc(OCC(=O)Nc4ccc(F)cc4O)cc3)cc2n(CCC)c1=O",
    "unit": "%",
    "inhibition": 88
  },
  {
    "compound": "CCCn1c(=O)c2[nH]c(-c3ccc(OCC(=O)Nc4ccc(CS(=O)(=O)N5CCCC5)cc4)cc3)cc2n(CCC)c1=O",
    "unit": "%",
    "inhibition": 70
  }
]

Proceeding to the next compound to report its inhibition.
Input line: Look up and report inhibition, with UniProt:P29275 as system, for CCCn1c(=O)c2[nH]c(-c3ccc(N(C=O)CC(=O)O)cc3)cc2n(CCC)c1=O
Output line: 40
